Recorded OD450 nm values for a group of binders are listed next.
# TARGET: T1, hSEMA4D ECD-His (His-tagged human SEMA4D protein extracellular domain, Met22-Arg734) (human, UniProt Q92854 22-734)
# T1 construct: Expressed in CHO-S cells, purified on Ni column; also called protein immunogen; immunogen A; not shown: His tag of the pCP vector
# T1 sequence: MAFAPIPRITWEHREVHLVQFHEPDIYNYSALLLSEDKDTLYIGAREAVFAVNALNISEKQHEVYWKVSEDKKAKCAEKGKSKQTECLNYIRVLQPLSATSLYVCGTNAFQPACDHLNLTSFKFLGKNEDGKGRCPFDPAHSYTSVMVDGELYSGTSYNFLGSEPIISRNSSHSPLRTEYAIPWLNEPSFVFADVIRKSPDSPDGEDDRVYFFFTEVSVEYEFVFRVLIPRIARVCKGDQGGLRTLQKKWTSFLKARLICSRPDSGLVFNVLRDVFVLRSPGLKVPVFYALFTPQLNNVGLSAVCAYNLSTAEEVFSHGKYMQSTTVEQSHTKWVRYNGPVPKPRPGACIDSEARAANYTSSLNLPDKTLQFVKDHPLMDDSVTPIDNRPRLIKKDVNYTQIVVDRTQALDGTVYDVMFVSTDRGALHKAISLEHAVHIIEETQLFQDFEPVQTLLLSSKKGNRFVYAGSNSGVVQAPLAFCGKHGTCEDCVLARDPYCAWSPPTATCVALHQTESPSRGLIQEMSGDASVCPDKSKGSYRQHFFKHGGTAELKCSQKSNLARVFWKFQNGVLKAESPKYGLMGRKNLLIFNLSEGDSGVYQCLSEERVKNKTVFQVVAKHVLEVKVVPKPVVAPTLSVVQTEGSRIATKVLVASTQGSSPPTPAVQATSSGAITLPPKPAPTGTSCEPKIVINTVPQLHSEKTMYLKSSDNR
# TEST: ELISA, coated hSEMA4D ECD-His; Ab 1.33 nM
# Experimental: First, hSEMA4D ECD-His was diluted with PBS to a final concentration of 1.0 μg/mL, and then was added to a 96-well ELISA plate, 100 μL per well, sealed with plastic film and incubated overnight at 4° C. […] A microplate reader (SpectraMax M5e, purchased from Molecular Device) was used to read the A450 nm value. […]
Answer as a number with no unit attached.

Take a look at these entries with their results.
{"BINDER": "42B7G2 (antibody, V domains shown, Mouse monoclonal antibody purified from hybridoma supernatant on protein A) VH: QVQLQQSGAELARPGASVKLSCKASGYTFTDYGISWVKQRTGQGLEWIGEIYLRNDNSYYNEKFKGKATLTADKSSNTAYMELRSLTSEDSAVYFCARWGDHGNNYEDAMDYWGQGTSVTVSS VL: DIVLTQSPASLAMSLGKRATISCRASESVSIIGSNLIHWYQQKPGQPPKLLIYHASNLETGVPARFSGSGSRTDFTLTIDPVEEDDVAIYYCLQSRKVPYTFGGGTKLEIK", "REPORTED_MEASUREMENT": 1.87}
{"BINDER": "37F11F9 (antibody, V domains shown, Mouse monoclonal antibody purified from hybridoma supernatant on protein A) VH: EVQLQQSGPVLVKPGASVKMSCKASGYTFTDYYMNWVKQSHGKSLEWIGLINPYSGGSTFNQKFKAKATLTVDKSSSSAYMDLNSLTSEDSAVYYCARVGDGYYGVTHGMDYWGQGTSVTVSS VL: DIVMTPSQKFMSTTVGDRVSITCKASQNVGTAVAWYQQKPGQSPTILIYSASNRYTGVPDRFTGSGSGTDFTLTISNMKSEDLADYFCQQYYIYPFTFAAGTKLELK", "REPORTED_MEASUREMENT": 1.39}
{"BINDER": "37C4F7 (antibody, V domains shown, Mouse monoclonal antibody purified from hybridoma supernatant on protein A) VH: EFQLQQSGPEVVKPGASVKISCKASGYSFTDYNMNWMKQSKGKSLEWIGVINPNYGTTTYNQNFKGKATLTVDQSSSTAYMQLNSLTSEDSAVYYCARDMYYVYAYYTMDYWGQGTSVTVSS VL: DVVMTQTPLSLPVSLGDQASISCRSSQSLVHSNGHTYLHWYLQRPGQSPTLLIYKVSNRFSGVPDRFSGSGSGTDFTLKISRVEAEDLGVYFCSQGTHVPWTFGGGTKLEIK", "REPORTED_MEASUREMENT": 0.91}

[Q] I am curious: what OD450 nm value has been reported for 38H2E3 (antibody, V domains shown, Mouse monoclonal antibody purified from hybridoma supernatant on protein A) VH: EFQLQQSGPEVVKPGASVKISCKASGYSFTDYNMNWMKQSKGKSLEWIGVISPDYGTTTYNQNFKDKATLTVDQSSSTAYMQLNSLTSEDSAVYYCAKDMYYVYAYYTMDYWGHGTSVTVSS VL: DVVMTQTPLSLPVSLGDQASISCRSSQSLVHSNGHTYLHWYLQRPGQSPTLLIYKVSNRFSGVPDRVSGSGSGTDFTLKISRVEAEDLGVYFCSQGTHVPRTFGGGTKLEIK ?
[A] 1.1
